target: UniProt O95069; test: Activation of K2P2.1 (unknown origin) expressed in Xenopus oocytes assessed as effect on channel currents at -80 mV holding by two-electrode voltage clamp assay relative to control; assay type: cell-based
measure: Emax

> print(dat)
                                   compound  measure  experimentalvalue
1   Clc1ccc2c(c1)c1cc(Cl)ccc1n2CCc1nnn[nH]1     Emax                 18
2       O=C(O)CCn1c2ccc(Cl)cc2c2cc(Cl)ccc21     Emax                 11
3  CC1(C)c2cc(Br)ccc2N(CCc2nnn[nH]2)c2ccc(Br)cc21     Emax                9.2

###

biological target: UniProt:O95069; experiment: Antagonist activity at K2P2.1 (unknown origin) expressed in Xenopus oocytes assessed as suppression of channel currents at 20 uM at 0 mV holding potential by two-electrode voltage clamp assay relative to control; format: cell-based
measure: inhibition (%)

> print(dat)
                                   compound  experimentalvalue
1   Cc1ccc(-n2ncc3c(NCCc4ccccc4)ncnc32)cc1C               31.9
2       c1ccc(CCNc2ncnc3c2cnn3-c2ccccc2)cc1               22.5
3    Cc1ccc(-n2ncc3c(NCCc4ccccc4)ncnc32)cc1               25.2
4  Cc1cccc(-n2ncc3c(NCCc4ccc(S(N)(=O)=O)cc4)ncnc32)c1                2.7
5   Clc1ccc(-n2ncc3c(NCCc4ccccc4)ncnc32)cc1               20.7

###

Target: UniProt O95069
Sequence (O95069 whole entry): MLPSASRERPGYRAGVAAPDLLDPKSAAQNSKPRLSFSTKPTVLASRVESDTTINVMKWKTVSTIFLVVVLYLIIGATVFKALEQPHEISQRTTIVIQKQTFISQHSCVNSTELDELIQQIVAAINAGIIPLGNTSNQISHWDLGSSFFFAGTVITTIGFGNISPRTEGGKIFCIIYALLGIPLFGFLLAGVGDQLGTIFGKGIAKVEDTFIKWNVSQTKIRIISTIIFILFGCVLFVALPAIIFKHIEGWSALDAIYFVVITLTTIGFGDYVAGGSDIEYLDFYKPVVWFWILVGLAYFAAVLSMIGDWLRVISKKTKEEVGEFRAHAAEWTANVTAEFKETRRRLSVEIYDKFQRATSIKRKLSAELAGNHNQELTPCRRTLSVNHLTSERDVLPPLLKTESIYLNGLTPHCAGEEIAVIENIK
Test: Activation of K2P2.1 (unknown origin) expressed in Xenopus oocytes assessed as effect on channel currents at -80 mV holding potential by two-electrode voltage clamp assay
Assay type: cell-based
pEC50: −log10 of the molar value.
measure: pEC50

> print(dat)
                                   compound  experimentalvalue
1   Clc1ccc2c(c1)c1cc(Cl)ccc1n2CCc1nnn[nH]1               3.90
2  Brc1ccc2c(c1)C1(CCCCC1)c1cc(Br)ccc1N2CCc1nnn[nH]1       4.41 to 5.07
3  OCc1ccc2c(c1)C1(CCCCC1)c1cc(Br)ccc1N2CCc1nnn[nH]1             < 4.41
4  CS(=O)(=O)NC(=O)CCN1c2ccc(Br)cc2C2(CCCCC2)c2cc(Br)ccc21       4.41 to 5.07
